Every entry's value here was drawn from patent US11161839B2.

# System Name: human BCL6 BTB domain (Trx-6xHis-BCL6) (Homo sapiens (Human))
# Method Description: HTRF in vitro assay (BCL6 BTB domain / BCOR-AF633 peptide)
# Assay type: binding
# Condition Notes: further generated data (Table 1b); 1 nM Trx-6xHis-BCL6, 0.5 nM anti-6xHis-Terbium cryptate
Here the recorded HTRF pIC50 is given for each entry.
Form: value (number only, do not type unit).

Check out these entries, answers already filled in.
Ask: Given the entry CC(Nc1cc(=O)n(C)c2ccc(Nc3nc(N4C[C@@H](C)O[C@@H](C)C4)ncc3Cl)cc12)c1ncccn1 (stereo partly drawn) [Example 17a] , what HTRF pIC50 was observed with human BCL6 BTB domain (Trx-6xHis-BCL6) (Homo sapiens (Human))?
Result: 6.48

Ask: And for Cn1c(=O)cc(NC2(CO)CC2)c2cc(Nc3cc(C(=O)O)nc(Cl)c3C#N)ccc21 ?
Result: 6.35

Ask: And for CCNC(=O)C(C)(C)Nc1cc(=O)n(C)c2ccc(Nc3ccnc(Cl)c3C#N)cc12 ?
Result: 6.41

---
Ask: Given the entry CC(Nc1cc(=O)n(CCN2C(=O)CCC2=O)c2ccc(Nc3ccnc(Cl)c3C#N)cc12)c1ncccn1 (stereo not drawn) , what HTRF pIC50 was observed with human BCL6 BTB domain (Trx-6xHis-BCL6) (Homo sapiens (Human))?
Result: 6.73

Ask: And for Cn1c(=O)cc(NC(C)(C)c2ncccn2)c2cc(Nc3cc(C(=O)N4CC(C(F)(F)F)C4)nc(Cl)c3C#N)ccc21 ?
Result: 7.50

Ask: And for C[C@@H]1CN(c2ncc(Cl)c(Nc3ccc4c(c3)c(NC(C)(C)c3ncccn3)nc(=O)n4C)n2)C[C@H](C)O1 [Example 26f] ?
Result: 6.99

Ask: And for CC(Nc1cc(=O)n(C)c2ccc(Nc3cc(N4CCC(C(=O)N(C)C)CC4)ncc3Cl)cc12)c1ncccn1 (stereo not drawn) [Example 15g] ?
Result: 6.47

Ask: And for Cn1c(=O)cc(NC2(c3ncccn3)CCOC2)c2cc(Nc3ccnc(Cl)c3C#N)ccc21 (stereo not drawn) [Example 19i] ?
Result: 6.38

Ask: And for C#CC1(Nc2cc(=O)n(C)c3ccc(Nc4cc(C(=O)O)nc(Cl)c4C#N)cc23)CC1 ?
Result: 6.77

Ask: And for Cc1nc(-n2ccc(C(F)(F)F)n2)nc(Nc2ccc3c(c2)c(NC(C)(C)c2ncccn2)cc(=O)n3C)c1Cl [Example 14a] ?
Result: 6.66

====

# System Name: BCL6-NCOR2(SMRT) corepressor protein-protein interaction (Homo sapiens (Human))
# Method Description: NanoBRET cell assay in transfected HEK293T cells
# Assay type: cell-based
# Condition Notes: further generated data (Table 2b); HEK293T cells, 6 hr; read-out: NanoBRET cell pIC50 (converted)
Please note: IC50 exactly at 2 µM is NOT MET. Only values below 2 µM get MET.

Ask: Field: below-cutoff. Rule: recorded IC50 strictly less than 2 µM. Subject: CNC(=O)c1cc(Nc2ccc3c(c2)c(N[C@H](C)C2CC2)cc(=O)n3C)c(C#N)c(Cl)n1 [Example 10i]
Result: MET

Ask: And for C[C@@H](Nc1nc(=O)n(C)c2ccc(Nc3ccnc(Cl)c3C#N)cc12)C1CC1 [Example 10m] ?
Result: NOT MET

Ask: And for Cc1cc(Nc2ccc3c(c2)c(NC(C)c2ncccn2)cc(=O)n3C)c(C#N)c(Cl)n1 (stereo not shown) ?
Result: MET

Ask: And for CC(Nc1cc(=O)n(C)c2ccc(Nc3ccnc(Cl)c3C#N)cc12)c1ccccn1 (stereo not shown) [Example 11d] ?
Result: NOT MET

Ask: And for CC(Nc1cc(=O)n(C)c2ccc(Nc3ccnc(Cl)c3C#N)cc12)c1ncc(N2CCOC(C(F)(F)F)C2)cn1 (stereo not shown) [Example 10d] ?
Result: MET

Now for a further compound.
Ask: Field: below-cutoff. Rule: recorded IC50 strictly less than 2 µM. Subject: CNC(=O)c1cc(Nc2ccc3c(c2)c(NC(C)(C)COC)cc(=O)n3C)c(C#N)c(Cl)n1
Result: MET

====

Here the recorded IC50 is given for each entry.
# System Name: BCL6-NCOR2(SMRT) corepressor protein-protein interaction (Homo sapiens (Human))
# Method Description: NanoBRET cell assay in transfected HEK293T cells
# Format: cell-based
# Condition Notes: further generated data (Table 2b); HEK293T cells, 6 hr; read-out: NanoBRET cell pIC50 (converted)
Kindly provide the numeric value in nM only, without the unit symbol.

Ask: So what's the measured IC50 for this one? CC(Nc1cc(=O)n(C)c2ccc(Nc3ccnc(Cl)c3C#N)cc12)c1ncc(-c2cccnc2)cn1 (stereo not drawn) [Example 20]
Result: 479

Ask: And for CC(Nc1nc(=O)n(C)c2ccc(Nc3nc(N4CCC(F)(F)CC4)ncc3Cl)cc12)c1ncccn1 (stereo not drawn) [Example 12a] ?
Result: 2340

Ask: And for CCOC(=O)c1cc(Nc2ccc3c(c2)c(NC(C)c2ncccn2)cc(=O)n3C)n2nccc2n1 (stereo not drawn) [Example 10q] ?
Result: 2690

Ask: And for CC(Nc1cc(=O)n(C)c2ccc(Nc3ccnc(Cl)c3Cl)cc12)c1ncccn1 (stereo not drawn) [Example 6a] ?
Result: 2820

Ask: And for C[C@@H]1CN(c2ncc(Cl)c(Nc3ccc4c(c3)c(NC(C)(C)c3ncccn3)nc(=O)n4C)n2)C[C@H](C)O1 [Example 26f] ?
Result: 676

Ask: And for CCC(C)(COC)Nc1cc(=O)n(C)c2ccc(Nc3cc(C(=O)NC)nc(Cl)c3C#N)cc12 (stereo not drawn) [Example 19f] ?
Result: 2950

====

# System Name: human BCL6 BTB domain (Trx-6xHis-BCL6) (Homo sapiens (Human), UniProt P41182)
# Method Description: HTRF in vitro assay (BCL6 BTB domain / BCOR-AF633 peptide)
# Type: binding
# Condition Notes: further generated data (Table 1b); 1 nM Trx-6xHis-BCL6, 0.5 nM anti-6xHis-Terbium cryptate
Here the recorded HTRF pIC50 is given for each entry.
Form: value (number only, do not type unit).

Ask: So what's the measured HTRF pIC50 for this one? CC(Nc1cc(=O)n(C)c2ccc(Nc3ccnc(Cl)c3C#N)cc12)c1ncc(N2C[C@H](C)C[C@H](C)C2)cn1 (some centres unmarked) [Example 10k]
Result: 6.82

Ask: And for CC(Nc1cc(=O)n(C)c2ccc(Nc3ccnc(Cl)c3C#N)cc12)c1nccs1 (centres unmarked) ?
Result: 6.07

Ask: And for CC(Nc1cc(=O)n(C)c2ccc(Nc3nc(N4CCC(F)(F)CC4)ncc3Cl)cc12)c1ncccn1 (centres unmarked) [Example 17i] ?
Result: 6.20

Ask: And for Cc1cc(C)n(-c2ncc(Cl)c(Nc3ccc4c(c3)c(NC(C)c3ncccn3)cc(=O)n4C)n2)n1 (centres unmarked) [Example 14f] ?
Result: 6.49

Ask: And for CC(Nc1cc(=O)n(C)c2ccc(Nc3ccnc(Cl)c3C#N)cc12)c1ccccn1 (centres unmarked) [Example 11d] ?
Result: 6.34

Ask: And for COC1CCC(NC(=O)[C@@H](C)Nc2cc(=O)n(C)c3ccc(Nc4ccnc(Cl)c4C#N)cc23)CC1 (some centres unmarked) ?
Result: 6.42

Ask: And for COCC(C)(C)Nc1cc(=O)n(C)c2ccc(Nc3cc(C(=O)O)nc(Cl)c3C#N)cc12 ?
Result: 7.01

Ask: And for Cn1c(=O)cc(NC(C)(C)C)c2cc(Nc3cc(C(=O)O)nc(Cl)c3C#N)ccc21 ?
Result: 6.84

Ask: And for CC(Nc1cc(=O)n(C)c2ccc(Nc3ccnc(Cl)c3C#N)cc12)c1ncc(C2CCC2)cn1 (centres unmarked) [Example 24f] ?
Result: 7.26

Ask: And for CNC(=O)[C@@H](C)Nc1cc(=O)[nH]c2ccc(Nc3ccnc(Cl)c3C#N)cc12 ?
Result: 6.61

---
Ask: So what's the measured HTRF pIC50 for this one? CC(CO)Nc1nc(=O)n(C)c2ccc(Nc3ccnc(Cl)c3C#N)cc12 (centres unmarked)
Result: 5.98

Ask: And for Cn1c(=O)cc(NC2CC2(C)C)c2cc(Nc3cc(C(=O)O)nc(Cl)c3C#N)ccc21 (centres unmarked) ?
Result: 6.49

Ask: And for CNC(=O)c1cc(Nc2ccc3c(c2)c(NC(C)(C)c2ncccn2)cc(=O)n3C)c(C#N)c(Cl)n1 ?
Result: 7.51

Ask: And for CC(=O)N(C)c1cc(Nc2ccc3c(c2)c(NC(C)c2ncccn2)cc(=O)n3C)c(Cl)cn1 (centres unmarked) ?
Result: 6.33

====

# System Name: BCL6-NCOR2(SMRT) corepressor protein-protein interaction (Homo sapiens (Human), UniProt P41182)
# Method Description: NanoBRET cell assay in transfected HEK293T cells
# Format: cell-based
# Condition Notes: further generated data (Table 2b); HEK293T cells, 6 hr; read-out: NanoBRET cell pIC50 (converted)
Please note: IC50 exactly at 3000 nM is N. Only values below 3000 nM get Y.

Ask: Field: below-cutoff. Rule: recorded IC50 strictly less than 3000 nM. Subject: C[C@@H](Nc1cc(=O)n(C)c2ncc(Nc3ccnc(Cl)c3C#N)cc12)C1CC1 [Example 24d]
Result: N

Ask: And for Cn1c(=O)cc(NC(C)(C)c2ncc(C3CC3)cn2)c2cc(Nc3ccnc(Cl)c3Cl)ccc21 [Example 6j] ?
Result: Y

Ask: And for Cn1c(=O)cc(NC(C)(C)c2ncccn2)c2cc(Nc3ccnc(Cl)c3C#N)cnc21 [Example 1x] ?
Result: Y

Ask: And for Cc1cc(C)n(-c2ncc(Cl)c(Nc3ccc4c(c3)c(N[C@H](C)C3CC3)cc(=O)n4C)n2)n1 [Example 14c] ?
Result: Y

Ask: And for CC(Nc1cc(=O)n(C)c2ccc(Nc3nc(N4C[C@@H](C)O[C@@H](C)C4)ncc3Cl)cc12)c1ncccn1 (stereo partly shown) [Example 17a] ?
Result: Y

Ask: And for C[C@@H](Nc1cc(=O)n(C)c2ccc(Nc3nc(N4CCC(C(=O)N(C)C)CC4)ncc3Cl)cc12)C1CC1 [Example 12b] ?
Result: Y

Ask: And for CC(Nc1cc(=O)n(CC2CCC2)c2ccc(Nc3ccnc(Cl)c3C#N)cc12)c1ncccn1 (stereo not shown) [Example 11i] ?
Result: Y

Ask: And for COCC(C)(C)Nc1cc(=O)n(C)c2ccc(Nc3ccnc(Cl)c3C#N)cc12 [Example 19d] ?
Result: N

---
Ask: Field: below-cutoff. Rule: recorded IC50 strictly less than 3000 nM. Subject: Cn1c(=O)cc(NC(C)(C)c2ncccn2)c2cc(Nc3cc(Cl)nc(Cl)c3Cl)ccc21 [Example 13]
Result: Y

Ask: And for CC(Nc1cc(=O)n(C)c2ccc(Nc3cc(N4CCC(F)(F)CC4)ncc3Cl)cc12)c1ncccn1 (stereo not shown) [Example 15h] ?
Result: N

Ask: And for COCCC1CCCN1C(=O)c1cc(Nc2ccc3c(c2)c(N[C@H](C)C2CC2)cc(=O)n3C)c(Cl)cn1 (stereo partly shown) [Example 15b] ?
Result: Y

Ask: And for COCC1CCN1c1ncc(Cl)c(Nc2ccc3c(c2)c(N[C@H](C)C2CC2)cc(=O)n3C)n1 (stereo partly shown) [Example 26b] ?
Result: Y

Ask: And for CC(Nc1cc(=O)n(CC2CC2)c2ccc(Nc3ccnc(Cl)c3C#N)cc12)c1ncccn1 (stereo not shown) [Example 11h] ?
Result: Y

Ask: And for COc1cc(Nc2nc(N3CCC(C(=O)N(C)C)CC3)ncc2Cl)cc2c(NC(C)(C)c3ncccn3)cc(=O)n(C)c12 [Example 12c] ?
Result: N

Ask: And for CC(Nc1cc(=O)n(C)c2ccc(Nc3ccnc(Cl)c3C#N)cc12)c1ncc(C2CCOCC2)cn1 (stereo not shown) [Example 10w] ?
Result: Y

Ask: And for CC(Nc1cc(=O)n(CCN2C(=O)CCC2=O)c2ccc(Nc3ccnc(Cl)c3C#N)cc12)c1ncccn1 (stereo not shown) [Example 1c] ?
Result: N
